Taken from ChEMBL document CHEMBL3988442.

- target.desc: AMP-activated protein kinase, AMPK (Homo sapiens) (UniProt P54646+O43741+P54619+Q9UGJ0+Q9Y478+Q13131+Q9UGI9)
- assay.protocol: AMP-dependent Kinase enzyme assay. An in vitro enzyme assay that detects ADP turnover that is directly proportional to AMPK activity. This uses naive AMPK that is activated during the assay with MK-8722
- Type: functional
- Set-up: scale not given: direction of the effect not stated beside the values
- condition.parameters: 30 µM
endpoint.label: Percent Effect (%)
Value expressed in %; do not type the unit.

Illustrative cases are given below, each with its answer.
O=C(CC1CC1)N1CCn2cc(Cn3cncn3)nc2C1 : 4.72
Cc1nc(O)c2nnn(C[C@H]3CCCN3C(=O)c3cccc(F)c3)c2n1 : 8.18
Cc1cc(=O)n(CC(=O)NCC2CCCO2)c(-c2ccc(F)cc2)n1 (stereo unspecified) : 1.45
CC(=O)NC1CCCN(C(=O)c2ccc(Br)cc2O)C1 (stereo unspecified) : -9.01
Cc1cc(C)n(C2CCCN(C(=O)Cc3csc(C)n3)C2)n1 (stereo unspecified) : -2.28

May I ask what Percent Effect has been recorded for `O=C(c1cscn1)N1C[C@@H]2[C@@H](C1)OCC(=O)N2CC1CCCC1` ? 1.15

----------
# Percent Effect per record follows
- Species on record: Homo sapiens
- assay.protocol: To identify inhibition of the IFN signalling (Jak-Stat) pathway via expression of an eGFP reporter gene under the control of an IFN-stimulated response element (ISRE) containing MxA promoter.
- Format: functional
- Parameters: scale not given: direction of the effect not stated beside the values
- condition.parameters: 30 µM
Value expressed in %; do not type the unit.

Illustrative cases are given below, each with its answer.
COCC1CN(Cc2ccsc2)Cc2nn(C)cc21 (configuration not stated) : 13.5
Cc1noc(CN2CCN(Cc3cccs3)CC2)n1 : 22.4
Cc1nccn1-c1cccc(C2CCCN2S(=O)(=O)N(C)C)n1 (configuration not stated) : 21
O=C(c1cccc(NCCO)c1)N1CCOCC1 : 28.8
COc1cccc(CCC(=O)N2CCCC(n3cc(C)cn3)C2)c1 (configuration not stated) : -7.62

May I ask what Percent Effect has been recorded for O=C(C1SCCc2sccc21)N1CCC(O)CC1 (configuration not stated) ? 5.86

May I ask what Percent Effect has been recorded for `CC(C)Cc1cc(C(=O)NCc2nnc[nH]2)[nH]n1` ? -0.467

May I ask what Percent Effect has been recorded for `CN1CCN(c2cc(CNC(=O)c3ccc(=O)[nH]n3)ccn2)CC1` ? 23.3

May I ask what Percent Effect has been recorded for `C[C@@H]1C(=O)NC[C@H]2CN(CCc3ccccc3)C[C@H]21` ? 2.51

May I ask what Percent Effect has been recorded for `Cc1cccc(-c2ccc3nc(C4CCN(CC5CC5)CC4)nn3c2)c1` ? 8.44

May I ask what Percent Effect has been recorded for `O=C(COCc1nc(-c2ccncc2)no1)N1CCCCCC1` ? 15.5

May I ask what Percent Effect has been recorded for `CCSc1ccc(C(=O)Nc2c(C)nn(C(C)C)c2C)cn1` ? 20.2

----------
# Percent Effect per record follows
- target.desc: Arginase-2, mitochondrial (Homo sapiens) (UniProt P78540)
- Sequence (P78540 whole entry): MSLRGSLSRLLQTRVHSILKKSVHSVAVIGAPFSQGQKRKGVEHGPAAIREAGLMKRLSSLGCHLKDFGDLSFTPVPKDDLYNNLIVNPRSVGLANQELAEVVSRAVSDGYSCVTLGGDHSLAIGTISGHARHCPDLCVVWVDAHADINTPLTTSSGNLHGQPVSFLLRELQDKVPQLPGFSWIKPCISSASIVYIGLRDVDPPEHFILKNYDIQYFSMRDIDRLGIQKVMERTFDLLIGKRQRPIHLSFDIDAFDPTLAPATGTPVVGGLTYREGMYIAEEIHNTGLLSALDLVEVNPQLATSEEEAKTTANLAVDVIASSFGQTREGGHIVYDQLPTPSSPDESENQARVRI
- assay.protocol: in vitro enzyme assay to detect the production of urea directly proportional to the activity of Arginase II; note: in the data most compounds retested in dose-response had high values
- Format: functional
- Parameters: scale not given: direction of the effect not stated beside the values
- condition.parameters: 33.3 µM
Value expressed in %; do not type the unit.

Illustrative cases are given below, each with its answer.
Cc1ccoc1C(=O)NC1CCN(Cc2cccc3c2OCCO3)CC1 : -5.38
COc1ccc(Cc2cccc(C3CCN(C)CC3)n2)cc1 : -1.62

# evaluate next
May I ask what Percent Effect has been recorded for Cn1cnc2c1C(COCc1cccnc1)N(Cc1ccccn1)CC2 (stereo not drawn) ? -51.8

----------
# Percent Effect per record follows
- target.desc: Ubiquitin-activating enzyme e1, putative (Leishmania donovani (strain BPK282A1)) (UniProt E9BSI1)
- Sequence (E9BSI1 as listed by the source): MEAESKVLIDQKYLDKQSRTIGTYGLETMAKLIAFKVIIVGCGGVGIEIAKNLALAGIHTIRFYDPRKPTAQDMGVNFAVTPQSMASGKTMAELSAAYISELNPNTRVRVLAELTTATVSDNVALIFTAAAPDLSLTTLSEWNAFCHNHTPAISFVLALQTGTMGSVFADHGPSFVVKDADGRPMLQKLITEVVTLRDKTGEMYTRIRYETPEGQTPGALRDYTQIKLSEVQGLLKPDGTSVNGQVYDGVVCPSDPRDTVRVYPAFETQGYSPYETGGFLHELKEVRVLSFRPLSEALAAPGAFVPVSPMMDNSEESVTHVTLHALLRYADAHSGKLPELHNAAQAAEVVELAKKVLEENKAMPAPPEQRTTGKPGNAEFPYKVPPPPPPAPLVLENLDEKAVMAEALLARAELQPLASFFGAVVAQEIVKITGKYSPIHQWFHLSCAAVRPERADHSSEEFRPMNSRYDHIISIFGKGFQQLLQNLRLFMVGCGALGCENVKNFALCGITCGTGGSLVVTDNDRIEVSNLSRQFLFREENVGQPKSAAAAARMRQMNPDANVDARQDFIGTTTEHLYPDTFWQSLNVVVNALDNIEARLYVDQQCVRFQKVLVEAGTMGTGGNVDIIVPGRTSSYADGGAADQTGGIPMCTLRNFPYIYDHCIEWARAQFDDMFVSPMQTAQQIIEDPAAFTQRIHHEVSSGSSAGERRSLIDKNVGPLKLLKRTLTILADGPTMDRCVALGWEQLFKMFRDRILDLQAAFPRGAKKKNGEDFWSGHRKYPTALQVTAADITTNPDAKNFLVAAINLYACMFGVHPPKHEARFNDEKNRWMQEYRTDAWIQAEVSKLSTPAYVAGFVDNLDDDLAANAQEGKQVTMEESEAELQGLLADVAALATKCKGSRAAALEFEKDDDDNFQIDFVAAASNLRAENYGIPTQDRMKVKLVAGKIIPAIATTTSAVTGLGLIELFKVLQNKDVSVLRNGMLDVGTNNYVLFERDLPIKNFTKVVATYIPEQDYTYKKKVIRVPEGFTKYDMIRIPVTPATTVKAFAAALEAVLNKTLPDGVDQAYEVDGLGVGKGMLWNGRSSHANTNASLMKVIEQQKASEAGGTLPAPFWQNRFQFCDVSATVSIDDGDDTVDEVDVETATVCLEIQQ
- assay.protocol: Leishmania donovani Ubiquitin Activating Enzyme (LdE1)
- Format: functional
- Design: scale not given: direction of the effect not stated beside the values
- condition.parameters: 30 µM
Entries with a potency or affinity are not part of this list.
Value expressed in %; do not type the unit.

Illustrative cases are given below, each with its answer.
CCC(NC(N)=O)c1ccccc1OCC(=O)N1CCCC1 (stereo unspecified) : 10.3
Cc1ccsc1C(=O)N1C[C@@H]2CN(Cc3ccoc3)CCO[C@@H]2C1 : 18.9
O=C(NC1CC(=O)N(Cc2cccc(F)c2)C1)c1ccncc1 (stereo unspecified) : -8.11
O=C1CC(c2cccc(O)c2)c2sc(C(=O)O)c(-c3ccccc3)c2N1 (stereo unspecified) : -10.8
Cc1cc(C(=O)N2CCc3ncc(CN4CCOCC4)n3CC2)no1 : 0

May I ask what Percent Effect has been recorded for `Cc1noc(C)c1CN(C)C(=O)c1ccc(NC2CC2)nc1` ? 15.8

May I ask what Percent Effect has been recorded for `CCc1cnc(N2CCC3(CC2)CN(c2cccnc2)C(=O)CO3)nc1` ? 0

----------
- target.desc: AMP-activated protein kinase, AMPK (Homo sapiens) (UniProt P54646+O43741+P54619+Q9UGJ0+Q9Y478+Q13131+Q9UGI9)
- assay.protocol: AMP-dependent Kinase enzyme assay. An in vitro enzyme assay that detects ADP turnover that is directly proportional to AMPK activity. This uses naive AMPK that is activated during the assay with MK-8722
- Format: functional
- Design: scale not given: direction of the effect not stated beside the values
- condition.parameters: 30 µM
# Percent Effect per record follows
Value expressed in %; do not type the unit.

Illustrative cases are given below, each with its answer.
O=C(c1cc(F)ccc1F)C1CCN(C(=O)c2ccc(=O)[nH]n2)CC1 : 0.316
COC(=O)C(C)(C)NC(=O)C1CC(=O)N(C2CCCC2)C1 (centres undefined) : -0.48
C[C@H]1C[C@H]2CN(C(=O)c3ccncn3)CC[C@H]2O1 : -0.849
Cc1ccsc1CN(C)C(=O)Cn1nc(-c2ccc(F)cc2)oc1=O : 1.09
COc1cccc(CNC(=O)N2CCN(Cc3cc(C)on3)CC2)c1 : -1.11

May I ask what Percent Effect has been recorded for Cc1cc(C)n(CC2CCCN2CC(=O)NC2CCOCC2)n1 (centres undefined) ? 1.94

May I ask what Percent Effect has been recorded for `Cc1nc(C)c(CC(=O)Nc2ncc(C)s2)c(=O)[nH]1` ? -1.41

May I ask what Percent Effect has been recorded for CC(=O)c1cccc(OCCCC(=O)NCC2CCCN2C)c1 (centres undefined) ? -2.69

May I ask what Percent Effect has been recorded for `O=C(NCCNc1ncccn1)C1CCN(CC(F)(F)F)CC1` ? 5.29

May I ask what Percent Effect has been recorded for COc1ccccc1CC1CCCN(CC(=O)N2CCOCC2)C1 (centres undefined) ? 1.77

May I ask what Percent Effect has been recorded for Cc1cc(C)n(CC2CCCN2Cc2c(C)noc2C)n1 (centres undefined) ? 33.8

May I ask what Percent Effect has been recorded for `CCCN(C(=O)c1ccccn1)c1nc2c(s1)CCc1c-2cnn1C` ? -62.8

May I ask what Percent Effect has been recorded for `CC(=O)N1CCN(C(=O)CN2CCc3c(ncn3C3CC3)C2)CC1` ? -1.56

May I ask what Percent Effect has been recorded for CN1CCOC(CNCc2coc(-c3cccs3)n2)C1 (centres undefined) ? -18.2

----------
# Percent Effect per record follows
- target.desc: Tyrosyl-tRNA synthetase, putative (Trypanosoma cruzi (strain CL Brener)) (UniProt Q4DSP6)
- assay.protocol: Trypanosoma cruzi tyrosyl tRNA synthetase (TcYRS) _High Tyrosine SOP; note: in the data most compounds retested in dose-response had high values
- Format: functional
- Parameters: scale not given: direction of the effect not stated beside the values
- condition.parameters: 30 µM
Value expressed in %; do not type the unit.

Illustrative cases are given below, each with its answer.
Cc1cnc(CN(C)C2CCN(CCc3cnn(C)c3)C2)o1 (stereo unspecified) : 4.74
CCCOCCCNc1nccc(-c2cn(C)nc2C)n1 : 5.85
Cc1noc([C@@H]2CCCN2C(=O)C2CCN(C(=O)C3CCC3)CC2)n1 : 0
c1cncc(C2COC3(CCN(CC4CC4)CC3)C2)c1 (stereo unspecified) : 8.91
CCc1nc(C2CCCN2CCCS(=O)(=O)c2ccccc2)no1 (stereo unspecified) : 4.31

# evaluate next
May I ask what Percent Effect has been recorded for `Cc1ccsc1C(=O)N1C[C@@H]2CN(Cc3ccoc3)CCO[C@@H]2C1` ? 6.49

----------
- target.desc: Tyrosyl-tRNA synthetase, putative (Trypanosoma cruzi (strain CL Brener)) (UniProt Q4DSP6)
- Sequence (whole entry): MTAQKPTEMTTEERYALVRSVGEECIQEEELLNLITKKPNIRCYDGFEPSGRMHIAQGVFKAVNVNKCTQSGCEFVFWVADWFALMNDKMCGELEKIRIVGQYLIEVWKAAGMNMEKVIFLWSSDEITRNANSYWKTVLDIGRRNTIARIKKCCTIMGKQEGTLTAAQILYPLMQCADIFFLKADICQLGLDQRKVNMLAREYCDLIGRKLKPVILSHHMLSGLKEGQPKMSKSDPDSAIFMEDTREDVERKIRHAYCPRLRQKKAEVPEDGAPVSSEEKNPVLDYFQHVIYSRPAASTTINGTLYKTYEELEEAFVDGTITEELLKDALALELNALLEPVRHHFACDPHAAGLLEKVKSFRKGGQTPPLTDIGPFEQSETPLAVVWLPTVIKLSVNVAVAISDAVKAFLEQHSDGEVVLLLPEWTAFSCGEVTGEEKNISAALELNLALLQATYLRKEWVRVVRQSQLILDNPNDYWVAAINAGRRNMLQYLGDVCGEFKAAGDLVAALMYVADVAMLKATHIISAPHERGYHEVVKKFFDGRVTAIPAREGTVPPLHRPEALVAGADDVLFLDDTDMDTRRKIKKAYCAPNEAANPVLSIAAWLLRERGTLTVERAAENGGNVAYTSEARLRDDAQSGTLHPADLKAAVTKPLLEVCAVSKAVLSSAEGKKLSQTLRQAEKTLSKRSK
- assay.protocol: Trypanosoma cruzi tyrosyl tRNA synthetase (TcYRS) SOP
- Format: functional
- Set-up: scale not given: direction of the effect not stated beside the values
- condition.parameters: 30 µM
endpoint.label: Percent Effect (%)
Value expressed in %; do not type the unit.

Cc1nn(C)c(C)c1C(C)NC(=O)Nc1cccnc1N1CCCC1 (centres undefined) : 3.7
CCC(OC)C(=O)N1CCc2nc(NC)nc(C(=O)N3CCCC3)c2C1 (centres undefined) : 16.1
COc1c(C2CCCN2C(=O)c2c[nH]c3ncccc23)c(C)nn1C (centres undefined) : 7.06
Cc1cccc(N2CC[C@@H]3CN(Cc4csc(C)n4)CCO[C@@H]3C2)n1 : -5.13
CNS(=O)(=O)c1ccc(C(=O)N2CCCC(n3cccn3)C2)cc1 (centres undefined) : 17.1

May I ask what Percent Effect has been recorded for N#CCCCS(=O)(=O)N1CCCC1CC(=O)c1cccs1 (centres undefined) ? -4.88

May I ask what Percent Effect has been recorded for Cc1n[nH]c(C)c1C1COCCN1C(=O)c1cc(Cl)c[nH]1 (centres undefined) ? 1.21

May I ask what Percent Effect has been recorded for `Cc1ccccc1N1CCCN(C(=O)CCCS(N)(=O)=O)CC1` ? 2.5

May I ask what Percent Effect has been recorded for `Cn1ccc(C(=O)NCc2cccc(CN3CCCC3)c2)cc1=O` ? 30.6

May I ask what Percent Effect has been recorded for COCCN1CCN(Cc2cccc(C(N)=O)c2)CC1C (centres undefined) ? 12.8

May I ask what Percent Effect has been recorded for `Cn1cc(CN2C[C@@H]3CN(Cc4ccoc4)CCO[C@@H]3C2)cn1` ? 16.7

May I ask what Percent Effect has been recorded for `Cc1cc(C)n(-c2cncc(N3CCN(C(=O)C(C)(C)C)CC3)n2)n1` ? 1.22

May I ask what Percent Effect has been recorded for `COc1ccc(-c2cnc(CN3CCn4c(C)nnc4C3)o2)cc1` ? 19.5
